test.target: T1, rat collagen, acid soluble, type I, rat tail (Upstate 08-115) (rat, UniProt P02454 152-1207; P02466 86-1125)
T1 construct: tissue extract, gelled and dried in wells; also called dried rat collagen
T1 sequence (P02454 152-1207, chain 1 of 2): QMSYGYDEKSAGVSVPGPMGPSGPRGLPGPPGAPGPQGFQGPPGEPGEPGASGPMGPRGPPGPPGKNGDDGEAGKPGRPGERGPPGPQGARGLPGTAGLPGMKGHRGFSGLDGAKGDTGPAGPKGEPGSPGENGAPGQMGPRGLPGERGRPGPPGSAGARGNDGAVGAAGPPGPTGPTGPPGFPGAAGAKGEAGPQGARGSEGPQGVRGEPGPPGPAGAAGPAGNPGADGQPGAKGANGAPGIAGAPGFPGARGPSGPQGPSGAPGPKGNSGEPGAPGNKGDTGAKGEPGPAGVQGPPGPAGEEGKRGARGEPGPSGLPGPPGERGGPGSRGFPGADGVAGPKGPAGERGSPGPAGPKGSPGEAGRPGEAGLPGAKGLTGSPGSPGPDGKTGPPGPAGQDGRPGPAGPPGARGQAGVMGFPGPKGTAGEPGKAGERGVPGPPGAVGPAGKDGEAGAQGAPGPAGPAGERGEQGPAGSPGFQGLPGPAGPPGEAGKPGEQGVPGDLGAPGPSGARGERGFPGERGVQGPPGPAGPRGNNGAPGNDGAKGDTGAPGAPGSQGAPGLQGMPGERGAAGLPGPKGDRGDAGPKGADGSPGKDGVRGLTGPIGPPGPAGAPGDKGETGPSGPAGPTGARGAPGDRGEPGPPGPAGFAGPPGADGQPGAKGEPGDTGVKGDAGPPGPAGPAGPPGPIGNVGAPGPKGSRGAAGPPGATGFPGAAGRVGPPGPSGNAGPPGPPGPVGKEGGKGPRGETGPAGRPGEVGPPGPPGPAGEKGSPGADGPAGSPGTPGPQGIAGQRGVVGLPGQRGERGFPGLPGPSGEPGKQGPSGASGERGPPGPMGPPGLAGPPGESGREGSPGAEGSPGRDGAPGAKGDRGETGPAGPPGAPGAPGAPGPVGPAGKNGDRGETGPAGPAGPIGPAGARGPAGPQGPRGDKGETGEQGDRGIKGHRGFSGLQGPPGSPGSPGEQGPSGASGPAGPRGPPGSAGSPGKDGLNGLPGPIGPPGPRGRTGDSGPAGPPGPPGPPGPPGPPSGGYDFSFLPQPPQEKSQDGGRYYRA
T1 sequence (P02466 86-1125, chain 2 of 2): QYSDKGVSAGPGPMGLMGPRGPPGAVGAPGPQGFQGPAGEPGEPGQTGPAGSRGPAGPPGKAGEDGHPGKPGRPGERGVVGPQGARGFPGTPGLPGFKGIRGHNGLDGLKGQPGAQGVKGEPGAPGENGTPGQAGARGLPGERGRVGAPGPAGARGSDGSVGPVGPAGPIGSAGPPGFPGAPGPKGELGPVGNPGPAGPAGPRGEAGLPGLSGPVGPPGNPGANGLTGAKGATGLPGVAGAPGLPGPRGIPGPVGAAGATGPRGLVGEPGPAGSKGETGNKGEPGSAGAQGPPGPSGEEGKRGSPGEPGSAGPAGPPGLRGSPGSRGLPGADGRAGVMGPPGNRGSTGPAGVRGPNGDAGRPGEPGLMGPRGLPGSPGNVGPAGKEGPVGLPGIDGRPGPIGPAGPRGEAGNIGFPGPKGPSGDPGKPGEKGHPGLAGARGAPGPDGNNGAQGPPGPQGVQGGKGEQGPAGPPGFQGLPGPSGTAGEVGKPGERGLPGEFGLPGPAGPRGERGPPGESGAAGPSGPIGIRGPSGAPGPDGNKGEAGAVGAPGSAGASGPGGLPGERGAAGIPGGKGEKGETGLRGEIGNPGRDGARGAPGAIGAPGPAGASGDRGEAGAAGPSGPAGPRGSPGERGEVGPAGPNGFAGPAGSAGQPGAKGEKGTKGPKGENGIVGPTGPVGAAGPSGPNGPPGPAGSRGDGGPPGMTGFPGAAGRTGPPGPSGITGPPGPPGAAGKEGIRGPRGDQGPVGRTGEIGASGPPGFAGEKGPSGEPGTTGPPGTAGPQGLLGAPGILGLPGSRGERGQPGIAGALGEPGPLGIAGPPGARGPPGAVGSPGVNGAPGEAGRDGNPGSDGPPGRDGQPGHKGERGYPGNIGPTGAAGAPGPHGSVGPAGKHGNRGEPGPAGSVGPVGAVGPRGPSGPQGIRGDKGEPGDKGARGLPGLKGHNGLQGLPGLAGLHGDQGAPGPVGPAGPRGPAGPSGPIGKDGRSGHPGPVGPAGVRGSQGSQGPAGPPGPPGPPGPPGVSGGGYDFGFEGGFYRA
protocol.text: dried collagen assay
Bridge positions count the residues as written; N and C are the ends. Primed or numbered codes have the meaning given here. Side chains are listed from the residue outwards. Ends that are not written are not given here. Gd^T″ = GdDTPA-thiourea
attribute.measured: % bound (%)
One number for each entry, in %.

{Gd^T″}-GQWHCYTK(Gd^T″)FPHHYCLYGK(Gd^T″) (disulfide 5-14 (inferred); not fully specified (C-terminus)) [Compound ID 993] = 70

Next item in the queue.
Return reported % bound; argument: {Gd^T″}-GK([Gly-Gd^T″])WYCTTYFPHHYCLYG (disulfide 5-14 (inferred); not fully specified (C-terminus)) [Compound ID 990]
62
